measuredTarget: T1, human GIPR (human, UniProt P48546 22-466)
T1 sequence (looked up): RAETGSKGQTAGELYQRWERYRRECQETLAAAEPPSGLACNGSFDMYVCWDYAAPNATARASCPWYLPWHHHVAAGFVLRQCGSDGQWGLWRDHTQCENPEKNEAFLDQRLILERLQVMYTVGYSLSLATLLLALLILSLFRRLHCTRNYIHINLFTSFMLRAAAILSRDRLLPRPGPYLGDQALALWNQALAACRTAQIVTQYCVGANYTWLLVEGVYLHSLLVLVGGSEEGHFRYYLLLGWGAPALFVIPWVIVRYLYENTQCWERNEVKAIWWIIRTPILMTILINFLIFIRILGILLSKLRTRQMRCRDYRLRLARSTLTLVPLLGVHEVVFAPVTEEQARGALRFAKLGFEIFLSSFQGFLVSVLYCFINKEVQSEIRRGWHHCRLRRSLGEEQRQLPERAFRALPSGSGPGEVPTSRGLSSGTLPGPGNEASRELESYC
methodNotes: cell-based or functional assay
Square brackets hold non-standard residues; d marks the D form. Side chains are listed from the residue outwards. Phe(2-F) = N[C@@H](Cc1ccccc1F)C(=O)O; αMeF = C[C@](N)(Cc1ccccc1)C(=O)O; Iva = CC[C@](C)(N)C(=O)O; Oda = not defined here; Aib = CC(C)(N)C(=O)O
Define the label as satisfied when Agonist activity (EC50), Cre-luc reporter assay is strictly less than 50 pM and as not satisfied in all remaining cases.

Completed entries (count: 4):
binder | answerLabel
Me-Y[Aib]EGT[αMeF]TSDK([Gly-Gly-Gly-Gly-Pal])[Aib]I[Aib]LDKQAQ[Iva]EFVRHLLNK[Aib]TRQRY-NH2 | satisfied
H-Y[Aib]EGT[αMeF]TSDK([Gly-Gly-Gly-Gly-Pal])AI[Aib]LDKQRQ[Iva]EFVRHLLNK[Aib]TRQRY-NH2 | not satisfied
Me-Y[Aib]EGT[αMeF]TSDK([Gly-Gly-Gly-Gly-Oda])SI[Aib]LDKQRQ[Iva]EFVRHLLNK[Aib]TRQRY-NH2 (reading uncertain; also: printed as Me-Tyr-Aib-Glu-Gly-Thr-αMePhe-Thr-Ser-Asp-Lys(-Gly-Gly-Gly-Gly-Oda)-Ser-Ile-Aib-Leu-Asp-Lys-Gln-Arg-Gln-Iva-Glu-Phe-Val-Arg-His-Leu-Leu-Asn-Lys-Aib-Thr-Arg-Gln-Arg-Tyr-NH2) | not satisfied
H-Y[Aib]EGT[αMeF]TSDK([Gly-Gly-Gly-Gly-Pal])[Aib]I[Aib]LDKQRQ[Iva]EFVRHLLNK[Aib]TRQR[Phe(2-F)]-NH2 | not satisfied

[ask] Is 50 pM strictly greater than the binder's reported Agonist activity (EC50), Cre-luc reporter assay? binder: Me-Y[Aib]EGT[αMeF]TSDK([Gly-Gly-Gly-Gly-Pal])SI[Aib]LEKQRQ[Iva]EFVRHLLNK[Aib]TRQRY-NH2
[reply] not satisfied

[ask] Please determine if H-Y[Aib]EGT[αMeF]TSDK([Gly-Gly-Gly-Gly-Oda])SI[Aib]LDKQRQ[Iva]EFVRHLLNK[Aib]TRQRY-NH2 (reading uncertain; also: printed as H-Tyr-Aib-Glu-Gly-Thr-αMePhe-Thr-Ser-Asp-Lys(-Gly-Gly-Gly-Gly-Oda)-Ser-Ile-Aib-Leu-Asp-Lys-Gln-Arg-Gln-Iva-Glu-Phe-Val-Arg-His-Leu-Leu-Asn-Lys-Aib-Thr-Arg-Gln-Arg-Tyr-NH2) is below 50 pM in terms of Agonist activity (EC50), Cre-luc reporter assay.
[reply] not satisfied

[ask] hey, is Agonist activity (EC50), Cre-luc reporter assay for Me-Y[Aib]EGT[αMeF]TSDK([Gly-Gly-Gly-Gly-Pal])[Aib]I[Aib]LEKQRQ[Iva]EFVRHLLNK[Aib]TRQRY-NH2 lower than 50 pM or not?
[reply] not satisfied

[ask] Problem: For the binder Me-Y[Aib]EGT[αMeF]TSDK([Gly-Gly-Gly-Gly-Pal])SK[Aib]LDKQRQ[Iva]EFVRHLLNK[Aib]TRQRY-NH2 , is Agonist activity (EC50), Cre-luc reporter assay under 50 pM?
[reply] satisfied
